Where these numbers come from: paper PMC5643385

Consider the following molecules and their measured Ki readings.
Molecular target: human DOP receptor (Homo sapiens)
Sequence (P41143 whole entry): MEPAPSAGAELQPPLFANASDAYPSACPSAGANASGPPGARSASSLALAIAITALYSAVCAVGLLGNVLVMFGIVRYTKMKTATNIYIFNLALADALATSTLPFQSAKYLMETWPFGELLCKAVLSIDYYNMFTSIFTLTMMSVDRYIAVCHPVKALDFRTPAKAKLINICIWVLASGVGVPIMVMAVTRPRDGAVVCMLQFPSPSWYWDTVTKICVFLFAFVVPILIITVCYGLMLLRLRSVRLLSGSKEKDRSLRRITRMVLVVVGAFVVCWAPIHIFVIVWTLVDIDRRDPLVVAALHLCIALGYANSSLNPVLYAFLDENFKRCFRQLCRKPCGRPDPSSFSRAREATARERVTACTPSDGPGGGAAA
Assay: Radioligand competition binding, [3H]DPDPE, membranes of transfected CHO cells
Return type: number; implicit unit nM.

// returns reported Ki for input `CC(C)[C@@H](CN1CCC(c2cccc(CNC(=O)[C@@H](N)CCCNC(=N)N)c2)CC1)NC(=O)[C@H]1Cc2ccc(O)cc2CN1`
53.6

// returns reported Ki for input `CC(C)[C@@H](CN1CCC(C2CCCCC2)CC1)NC(=O)[C@H]1Cc2ccc(O)cc2CN1`
12.4

// returns reported Ki for input `CC(C)[C@@H](CN1CCC(c2cccc(O)c2)CC1)NC(=O)[C@H]1Cc2ccc(C#N)cc2CN1`
73.7

###

Target: human MOP receptor (Homo sapiens, UniProt P35372)
Sequence (P35372 whole entry): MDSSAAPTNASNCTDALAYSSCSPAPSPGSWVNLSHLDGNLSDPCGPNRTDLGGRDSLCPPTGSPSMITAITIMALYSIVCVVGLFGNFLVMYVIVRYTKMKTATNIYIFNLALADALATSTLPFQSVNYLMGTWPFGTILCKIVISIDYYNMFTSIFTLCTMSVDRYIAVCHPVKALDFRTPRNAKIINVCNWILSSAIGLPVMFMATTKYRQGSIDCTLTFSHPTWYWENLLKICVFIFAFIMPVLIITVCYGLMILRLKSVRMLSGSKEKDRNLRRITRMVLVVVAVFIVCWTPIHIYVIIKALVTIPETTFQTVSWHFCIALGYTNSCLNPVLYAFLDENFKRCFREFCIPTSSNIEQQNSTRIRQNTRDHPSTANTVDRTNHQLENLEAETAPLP
Assay: Radioligand competition binding, [3H]DAMGO, membranes of transfected CHO cells
test-readout: Ki (nM)
Return type: number; implicit unit nM.

Would you please look over these solved cases?
CC(C)[C@@H](CN1CCC(c2cccc(C#N)c2)CC1)NC(=O)[C@H]1Cc2ccc(O)cc2CN1 | 2.93
CC(C)[C@@H](CN1CCC(C2CCCCC2)CC1)NC(=O)[C@H]1Cc2ccc(O)cc2CN1 | 2.79
CC(C)[C@@H](CN1CCC(c2cccc(O)c2)CC1)NC(=O)[C@H]1Cc2ccc(C#N)cc2CN1 | 81.7
CC(C)[C@@H](CN1CCC(c2cccc(CN)c2)CC1)NC(=O)[C@H]1Cc2ccc(O)cc2CN1 | 0.68

Okay, now this molecule:
// returns reported Ki for input `CC(C)[C@@H](CN1CCC(c2cccc(CNC(=O)[C@@H](N)CCCNC(=N)N)c2)CC1)NC(=O)[C@H]1Cc2ccc(O)cc2CN1`
5.67

###

Target: human MOP receptor (Homo sapiens)
Experiment: Radioligand competition binding, [3H]DAMGO, membranes of transfected CHO cells
Details: [3H]DAMGO displacement; Cheng-Prusoff; mean ± SEM, at least three experiments in triplicate; read-out: Receptor Binding, Ki MOP
Label key: fulfilled means Ki under 1000 nM; not fulfilled means Ki of 1000 nM or more.

Use these answered entries as a reference point.
CC(C)[C@@H](CN1CCC(c2cccc(CN)c2)CC1)NC(=O)[C@H]1Cc2ccccc2CN1 [Compound 11] | fulfilled
CC(C)[C@@H](CN1CCC(c2cccc(O)c2)CC1)NC(=O)[C@H]1Cc2ccc(CNC(=N)N)cc2CN1 [Compound 4] | fulfilled
CC(C)[C@@H](CN1CCC(c2cccc(CNC(=O)[C@@H](N)CCCNC(=N)N)c2)CC1)NC(=O)[C@H]1Cc2ccccc2CN1 [Compound 13] | fulfilled
CC(C)[C@@H](CN1CCC(c2cccc(O)c2)CC1)NC(=O)[C@H]1Cc2ccc(CN)cc2CN1 [Compound 3] | not fulfilled
CC(C)[C@@H](CN1CCC(c2cccc(O)c2)CC1)NC(=O)[C@@H](N)CCCNC(=N)N [Compound 7] | not fulfilled
CC(C)[C@@H](CN1CCC(c2cccc(O)c2)CC1)NC(=O)[C@@H](N)CCCCN [Compound 6] | not fulfilled

Turning to the following compound.
Please state whether Ki is below 1000 nM for CC(C)[C@@H](CN1CCC(c2cccc(O)c2)CC1)NC(=O)[C@H]1Cc2ccc(CNS(C)(=O)=O)cc2CN1 [Compound 5]
not fulfilled

###

Molecular target: human NOP receptor (Homo sapiens, UniProt P41146)
Sequence (P41146 whole entry): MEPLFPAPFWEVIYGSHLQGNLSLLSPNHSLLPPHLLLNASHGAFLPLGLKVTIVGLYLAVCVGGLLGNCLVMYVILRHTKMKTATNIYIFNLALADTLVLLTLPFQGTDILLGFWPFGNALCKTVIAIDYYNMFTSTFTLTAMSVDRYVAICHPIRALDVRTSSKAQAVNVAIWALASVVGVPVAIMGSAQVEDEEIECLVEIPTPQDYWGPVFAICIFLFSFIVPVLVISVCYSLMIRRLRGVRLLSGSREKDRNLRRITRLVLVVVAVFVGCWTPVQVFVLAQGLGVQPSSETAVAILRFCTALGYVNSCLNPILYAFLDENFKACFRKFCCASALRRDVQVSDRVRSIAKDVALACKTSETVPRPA
Test: Radioligand competition binding, [3H]N/OFQ, membranes of transfected CHO cells
Details: [3H]N/OFQ displacement; Cheng-Prusoff; mean ± SEM, at least three experiments in triplicate; read-out: Receptor Binding, Ki NOP
test-readout: Ki

CC(C)[C@@H](CN1CCC(c2cccc(O)c2)CC1)NC(=O)[C@@H](N)CCCCN [Compound 6] | > 10 µM
CC(C)[C@@H](CN1CCC(c2cccc(O)c2)CC1)NC(=O)[C@@H](N)CCCNC(=N)N [Compound 7] | > 10 µM

// returns reported Ki for input CC(C)[C@@H](CN1CCC(c2cccc(C#N)c2)CC1)NC(=O)[C@H]1Cc2ccccc2CN1 [Compound 9]
> 10 µM
